Tested on: ACHN
Experiment: NCI tumour cell line growth inhibition, 48 h
Calls of active or inactive are those of the source. Cut-off read from the data, not from the text of the source: active = GI50 up to about 1.1 µM and inactive = higher.
reportedProperty: GI50

> print(dat)
                                   compound  studytarget  reportedproperty               result
1  COC(=O)c1c(C)cccc1/C=C1\Cc2ccc(C)c(C)c2C1=O         ACHN              GI50  > 100 µM (inactive)
2  O=C(Nc1ccccc1)OCCN=C1c2ccccc2CCc2ccccc21         ACHN              GI50   15.4 µM (inactive)
3  CSc1nc2c(c(=O)[nH]1)N=C(c1ccc([N+](=O)[O-])cc1)CC(c1ccccc1)N2 (stereo not given)         ACHN              GI50   31.9 µM (inactive)
4       CN(C)c1ccc(/C=C/C(=O)c2ccccc2)cc1Br         ACHN              GI50   22.8 µM (inactive)
5             N#CC(C#N)=C1NN=C(Cl)c2ccccc21         ACHN              GI50  > 100 µM (inactive)

---

Below, each of the compounds is paired with its reported GI50 value.
Test system: HCT-15
reportedProperty: GI50 (µM)

> print(dat)
                                        smi  unitstring  resultqualifier  quantitativereadout
1  COc1ccc(CCN2CCc3c(C)c(C#N)c4nc5ccccc5n4c32)cc1OC          µM                =                   29
2  c1ccc(CCCN2C3CCC2CN(CCOC(c2ccccc2)c2ccccc2)C3)cc1          µM                =                 4.72
3  NCCNc1nc(N2CCCC2)c2nc(Cl)c(NCc3ccccc3)nc2n1          µM                =                 1.95
4   CCc1cccc(CC)c1NC(=O)C(=O)Cc1nc2ccccc2o1          µM                >                  100
5           Cc1nnc2cc(C(=O)O)c3ccccc3n2c1=O          µM                >                   10

---

Listed here are compounds together with their documented GI50.
Tested on: NCI-H460
Assay: NCI tumour cell line growth inhibition, 48 h
Active and inactive are the calls of the source. No stated cut-off is given here; in the data, active = GI50 up to about 1.1 µM and inactive = higher.
reportedProperty: GI50

> print(dat)
                                   compound               result
1  O=C(Nc1ccccc1)OCCN=C1c2ccccc2CCc2ccccc21   21.4 µM (inactive)
2  CC(=O)OC(C(=O)NNC(=O)OC(C)(C)C)c1ccccc1 (centres undefined)  > 100 µM (inactive)
3  C[N+](C)(C)CC(=O)N/N=C(/CC(=O)CC(C1=C(O)c2ccccc2OC1)c1ccccc1)C(=O)Nc1cccc(Cl)c1 (centres undefined)   > 10 µM (inactive)
4  CC(C(=O)[O-])S(=O)(=O)O.CCc1c2cc(OC)c(OC)cc2cc2c3cc(OC)c(OC)cc3cc[n+]12   42.4 µM (inactive)
5  COc1cc(C(C)c2cc3c(cc2OCCO)OCO3)cc(OC)c1OC (centres undefined)    2.2 µM (inactive)
6  O=C1CSC(c2ccccc2)N1c1ccc(-c2ccc(-n3c(-c4ccccc4)nc4ccccc4c3=O)cc2)cc1 (centres undefined)     46 µM (inactive)
7  COc1ccc2c(c1)CN1C(=N2)CSC1c1ccccc1Cl (centres undefined)   14.3 µM (inactive)
8  COc1cc2c(cc1O)[C@H](Cc1ccc(Oc3cc(C[C@H]4c5cc(OC)c(OC)cc5CCN4C)ccc3OC)cc1)NCC2   14.3 µM (inactive)
9  CC1=NN(c2nc(N)nc(CSc3nc4n(c(=S)n3)CCN4)n2)C(C)(C)C1  > 100 µM (inactive)
